target: C-X-C chemokine receptor type 3 (Homo sapiens); experiment: Displacement of [125I]-CXCL10 from human CXCR3 expressed in HEK293 cells; type: cell-based
Sequence (P49682 whole entry): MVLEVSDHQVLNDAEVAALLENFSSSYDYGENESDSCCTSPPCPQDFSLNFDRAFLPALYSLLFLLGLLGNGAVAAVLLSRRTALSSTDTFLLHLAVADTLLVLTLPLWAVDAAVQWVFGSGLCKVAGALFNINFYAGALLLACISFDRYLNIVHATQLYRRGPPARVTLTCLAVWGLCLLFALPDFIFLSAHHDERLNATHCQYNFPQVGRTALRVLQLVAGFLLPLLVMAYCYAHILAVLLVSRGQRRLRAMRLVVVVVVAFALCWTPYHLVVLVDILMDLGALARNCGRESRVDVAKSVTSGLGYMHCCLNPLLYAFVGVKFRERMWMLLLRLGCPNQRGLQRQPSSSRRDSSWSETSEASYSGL
Observation Type: Ki (nM)

A. CC1(C)[C@H]2CC=C(C[N+](C)(C)Cc3ccc(-c4cc(Cl)cc(Cl)c4)cc3)[C@@H]1C2
B. CN(Cc1ccc(I)cc1)CC1C[C@H]2CC[C@]1(C)C2(C)C (mixture of isomers)
C. CN(CCC12CC3CC(CC(C3)C1)C2)Cc1ccc(I)cc1
D. CN(CC1=CC[C@H]2C[C@@H]1C2(C)C)Cc1ccc(I)cc1
Data request: Sort by Ki with smallest numbers at the start of the list. // rank by listing labels in the order requested
Data returned: A, D, C, B

1. CN(CC1=CC[C@H]2C[C@@H]1C2(C)C)Cc1ccc(Cl)c(Cl)c1
2. CC1(C)[C@H]2CC=C(C[N+](C)(C)Cc3ccc(-c4cccc(O)c4)cc3)[C@@H]1C2
Data request: Rank 1 against 2 by their Ki values and give the higher one. Kindly give the label for the entry you pick.
Data returned: 1
(1: 3160 nM, 2: 1580 nM)
